Record form. Attribute: melting point. Fill in for each entry.

Consider the reported melting point for these molecules:
{"columns": ["compound.string", "melting point"],
 "data": [
  ["Nc1ncc(C#Cc2cnn3c(C(F)(F)F)cc(-c4ccc(Cl)cc4)nc23)cn1", "303 to 305 °C"],
  ["NS(=O)(=O)c1ccc(C#Cc2cnn3c(CO)cc(-c4ccc(Cl)cc4)nc23)cc1", "238 to 240 °C"],
  ["NS(=O)(=O)c1ccc(C#Cc2cnc3c(C(F)(F)F)cc(-c4ccc(C(F)(F)F)cc4)nn23)s1", "261 to 263 °C"],
  ["Cc1cc(-c2cc(C(F)(F)F)n3ncc(C#Cc4cccc(S(=O)(=O)NC(C)(C)CO)c4)c3n2)ccc1Cl", "204 °C"],
  ["Cc1nc(C#Cc2cnn3c(C(F)(F)F)cc(-c4ccc(C(F)(F)F)cc4)nc23)sc1S(=O)(=O)NC(C)(C)CO", "216 to 218 °C"],
  ["CCOc1cc(-c2cc(C(F)(F)F)n3ncc(C#Cc4ccc(N)nc4)c3n2)ccc1C(F)(F)F", "218 °C"],
  ["Nc1ncc(C#Cc2ncn3c(C(F)(F)F)cc(-c4ccc(C(F)(F)F)cc4)nc23)cn1", "294 °C"],
  ["CN(C)CCNS(=O)(=O)c1ccc(C#Cc2ncn3c(C(F)(F)F)cc(-c4ccc(C(F)(F)F)cc4)nc23)s1", "178 °C"],
  ["N#Cc1cc(-c2ccc(C(F)(F)F)cc2)cn2c(C#Cc3ccc(S(N)(=O)=O)s3)cnc12", "267 to 269 °C"],
  ["Cc1ccc(C#Cc2cnn3c(C(F)(F)F)cc(-c4ccc(C(F)(F)F)cc4)nc23)cc1S(=O)(=O)NCCO", "174 to 175 °C"]
]}

Please supply melting point for each of the following items, keeping them in order.
1. CNS(=O)(=O)c1ccc(C#Cc2cnn3c(C(F)(F)F)cc(-c4ccc(C(F)(F)F)cc4)nc23)cc1
2. Cc1ccc(C#Cc2cnn3c(C(F)F)cc(-c4ccc(C(F)(F)F)cc4)nc23)cc1S(=O)(=O)NCCO
3. O=S(=O)(NCc1cccnc1)c1ccc(C#Cc2cnn3c(C(F)F)cc(-c4ccc(C(F)(F)F)cc4)nc23)s1
4. CC(C)(CO)NS(=O)(=O)c1cccc(C#Cc2cnn3c(C4CC4)cc(-c4ccc(Cl)cc4)nc23)c1
5. CS(=O)(=O)Nc1ccc(C#Cc2cnn3c(C(F)(F)F)cc(-c4ccc(C(F)(F)F)cc4)nc23)cn1

Return:
1. 231 to 233 °C
2. 184 to 186 °C
3. 152 °C
4. 202 to 204 °C
5. 261 to 263 °C

* * *

property.name: melting point

Please supply melting point for each of the following items, keeping them in order.
1. Cc1cc(-c2ccc(C(F)(F)F)cc2)nc2c(C#Cc3ccc(S(=O)(=O)NC(CO)CO)s3)cnn12
2. Cc1nc(N)ccc1C#Cc1cnn2c(C(F)F)cc(-c3ccc(C(F)(F)F)cc3)nc12
3. NC(=O)c1ccc(C#Cc2cnn3c(C(F)(F)F)cc(-c4ccc(C(F)(F)F)cc4)nc23)cc1
4. N#Cc1ccc(C#Cc2cnn3c(C(F)(F)F)cc(-c4ccc(C(F)(F)F)cc4)nc23)cn1
5. NS(=O)(=O)c1cccc(C#Cc2cnn3c(C(F)F)cc(-c4ccc(C(F)(F)F)cc4)nc23)c1
6. CC(CO)(CO)NS(=O)(=O)c1cncc(C#Cc2cnn3c(C4CC4)cc(-c4ccc(C(F)(F)F)cc4)nc23)c1

Return:
1: 148 to 152 °C; 2: 243 to 246 °C; 3: 260 °C; 4: 212 °C; 5: 246 to 247 °C; 6: 190 to 191 °C

* * *

Record form. Attribute: melting point. Fill in for each entry.
One number for each entry, in °C.

Consider the reported melting point for these molecules:
{"columns": ["compound.string", "melting point (°C)"],
 "data": [
  ["Cc1cc(C#Cc2cnn3c(C(F)(F)F)cc(-c4ccc(C(F)(F)F)cc4)nc23)ccn1", 206],
  ["NS(=O)(=O)c1ccc(C#Cc2cnn3c(C(F)F)cc(-c4ccc(C(F)(F)F)cc4)nc23)cc1", 254],
  ["OCc1cccc(C#Cc2cnn3c(C(F)(F)F)cc(-c4ccc(C(F)(F)F)cc4)nc23)c1", 177]
]}

The record that follows has no melting point shown yet.
Enquiry: Could you share which melting point value was measured for `CC(=O)Nc1ccc(C#Cc2cnn3c(C(F)(F)F)cc(-c4ccc(C(F)(F)F)cc4)nc23)cc1` ?
Return: 238

* * *

Record form. Attribute: melting point. Fill in for each entry.

Please supply melting point for each of the following items, keeping them in order.
1. Cc1cc(-c2ccc(Cl)cc2)nc2c(C#Cc3ccc(S(N)(=O)=O)cc3)cnn12
2. CC(CO)(CO)NS(=O)(=O)c1cncc(C#Cc2cnn3c(C4CC4)cc(-c4ccc(Cl)cc4)nc23)c1
3. Nc1ccc(C#Cc2cnc3c(C(F)(F)F)cc(-c4ccc(C(F)(F)F)cc4)nn23)cn1
4. CS(=O)(=O)c1cncc(C#Cc2cnn3c(C(F)(F)F)cc(-c4ccc(C(F)(F)F)cc4)nc23)c1

Return:
["230 to 233 °C", "204 to 206 °C", "267 °C", "241 to 242 °C"]

* * *

property.name: melting point (°C)
Give bare numbers, in °C.

Please supply melting point for each of the following items, keeping them in order.
1. NS(=O)(=O)c1cc(C#Cc2ncn3c(C(F)(F)F)cc(-c4ccc(C(F)(F)F)cc4)nc23)c(F)cc1F
2. N#Cc1cc(C#Cc2cnn3c(C(F)F)cc(-c4ccc(C(F)(F)F)cc4)nc23)cnc1N
3. Nc1ccc(C#Cc2cnc3c(F)cc(-c4ccc(Cl)cc4)cn23)cn1
4. FC(F)(F)c1ccc(-c2cc(C(F)(F)F)n3ncc(C#Cc4cccnc4C4CC4)c3n2)cc1
5. Cc1cc(-c2ccc(C(F)(F)F)cc2)cn2c(C#Cc3cnc(N)nc3)cnc12

Return:
1: 247; 2: 255; 3: 259; 4: 202; 5: 236

Please supply melting point for each of the following items, keeping them in order.
1. CC(=O)Nc1ncc(C#Cc2cnn3c(C(F)(F)F)cc(-c4ccc(C(F)(F)F)cc4)nc23)s1
2. Cc1cc(-c2cc(C(F)F)n3ncc(C#Cc4ccc(S(=O)(=O)NCCN(C)C)s4)c3n2)ccc1Cl

Return:
1: 302; 2: 149

* * *

Record form. Attribute: melting point. Fill in for each entry.

Consider the reported melting point for these compounds:
{"columns": ["compound.string", "melting point"],
 "data": [
  ["Cc1cc(-c2cc(C(F)(F)F)n3ncc(C#Cc4cccnc4)c3n2)ccc1Cl", "196 °C"],
  ["CC(CO)(CO)NS(=O)(=O)c1cncc(C#Cc2cnn3c(C(F)(F)F)cc(-c4ccc(C(F)(F)F)cc4)nc23)c1", "228 to 231 °C"],
  ["COc1cncc(C#Cc2cnn3c(C(F)(F)F)cc(-c4ccc(C(F)(F)F)cc4)nc23)c1", "232 to 234 °C"],
  ["FC(F)(F)c1cc(-c2ccc(Cl)cc2)nc2c(C#Cc3cccnc3)cnn12", "214 to 215 °C"]
]}

Please supply melting point for each of the following items, keeping them in order.
1. OCCNc1ccc(C#Cc2cnn3c(C(F)(F)F)cc(-c4ccc(C(F)(F)F)cc4)nc23)cn1
2. FC(F)(F)c1ccc(-c2cc(C(F)(F)F)n3cnc(C#Cc4cccnc4)c3n2)cc1
3. Cc1ccc(C#Cc2cnn3c(C(F)F)cc(-c4ccc(C(F)(F)F)cc4)nc23)cc1S(N)(=O)=O
4. CC(C)(CO)NS(=O)(=O)c1cncc(C#Cc2cnn3c(C4CC4)cc(-c4ccc(C(F)(F)F)cc4)nc23)c1
5. NS(=O)(=O)c1cccc(C#Cc2cnn3c(C(F)(F)F)cc(-c4ccc(Cl)c(Cl)c4)nc23)c1
6. CC(C)(O)c1cc(-c2ccc(Cl)cc2)nc2c(C#Cc3ccc(S(N)(=O)=O)cc3)cnn12
7. FC(F)(F)c1ccc(-c2cc(C(F)(F)F)n3ncc(C#Cc4cccnc4)c3n2)cc1

Return:
1. 202 to 203 °C
2. 199 °C
3. 265 to 267 °C
4. 190 to 191 °C
5. 230 to 231 °C
6. 267 to 269 °C
7. 187 to 188 °C

Please supply melting point for each of the following items, keeping them in order.
1. Cc1cc(-c2ccc(C(F)(F)F)cc2)nc2c(C#Cc3ccc(S(N)(=O)=O)s3)cnn12
2. NS(=O)(=O)c1cccc(C#Cc2cnn3c(C4CC4)cc(-c4ccc(Cl)cc4)nc23)c1
3. COCCNS(=O)(=O)c1ccc(C#Cc2cnn3c(C(F)(F)F)cc(-c4ccc(C(F)(F)F)cc4)nc23)cc1
4. CC(C)(C)c1cc(-c2ccc(Cl)cc2)nc2c(C#Cc3ccc(S(N)(=O)=O)s3)cnn12

Return:
1: 214 to 215 °C; 2: 236 to 237 °C; 3: 185 to 187 °C; 4: 253 to 255 °C
